Values from ChEMBL document CHEMBL3091402

Target: Histamine H3 receptor (Homo sapiens)
Sequence (Q9Y5N1 whole entry): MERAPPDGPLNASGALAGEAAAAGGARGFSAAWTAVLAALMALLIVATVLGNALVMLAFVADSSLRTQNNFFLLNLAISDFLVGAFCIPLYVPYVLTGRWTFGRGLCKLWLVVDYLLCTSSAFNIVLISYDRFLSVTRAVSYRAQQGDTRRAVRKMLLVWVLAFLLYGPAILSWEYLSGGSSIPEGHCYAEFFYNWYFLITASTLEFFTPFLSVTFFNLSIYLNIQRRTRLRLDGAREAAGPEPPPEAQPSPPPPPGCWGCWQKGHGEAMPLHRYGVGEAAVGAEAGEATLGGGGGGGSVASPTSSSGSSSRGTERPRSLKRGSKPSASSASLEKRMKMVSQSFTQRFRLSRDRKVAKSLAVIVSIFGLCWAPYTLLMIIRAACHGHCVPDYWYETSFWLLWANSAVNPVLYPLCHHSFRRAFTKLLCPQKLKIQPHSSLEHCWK
Experiment: Displacement of [3H]-R-alpha-ethylhistamine from histamine H3 receptor in human cerebral cortical tissue membranes after 45 mins by liquid scintillation spectrometry
Experimental readout: Ki (nM)

* O=C1CCCN1c1ccc(Oc2ccc3c(c2)CCN(C2CCC2)CC3)nc1 [GSK239512] | 0.12

---

Target: Histamine H3 receptor (Rattus norvegicus, UniProt Q9QYN8)
Sequence (Q9QYN8 whole entry): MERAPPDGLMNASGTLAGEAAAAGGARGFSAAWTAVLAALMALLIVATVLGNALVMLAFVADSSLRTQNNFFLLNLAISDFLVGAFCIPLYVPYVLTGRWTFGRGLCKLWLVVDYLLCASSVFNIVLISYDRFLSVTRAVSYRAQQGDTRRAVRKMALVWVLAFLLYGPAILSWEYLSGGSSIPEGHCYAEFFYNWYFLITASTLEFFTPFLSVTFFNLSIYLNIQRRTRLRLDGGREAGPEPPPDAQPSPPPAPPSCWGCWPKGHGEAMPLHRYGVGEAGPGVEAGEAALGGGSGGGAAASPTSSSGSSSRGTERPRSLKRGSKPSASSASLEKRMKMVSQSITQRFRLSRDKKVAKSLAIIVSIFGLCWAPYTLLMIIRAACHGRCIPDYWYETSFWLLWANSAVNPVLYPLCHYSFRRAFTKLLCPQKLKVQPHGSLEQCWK
Assay: Displacement of [3H]-R-alpha-ethylhistamine from histamine H3 receptor in rat cerebral cortical tissue membranes after 45 mins by liquid scintillation spectrometry
Below, each entry is listed with its recorded Ki.
Experimental readout: Ki (nM)

- O=C1CCCCN1c1ccc(Oc2ccc3c(c2)CCN(C2CCC2)CC3)nc1: 2.51
- CC(C)NC(=O)c1ccc(Oc2ccc3c(c2)CCN(C2CCC2)CC3)nc1: 0.631
- c1cc(-c2ccc(Oc3ccc4c(c3)CCN(C3CCC3)CC4)nc2)[nH]n1: 2.51
- Cc1nnc(-c2ccc(Oc3ccc4c(c3)CCN(C3CCC3)CC4)nc2)o1: 0.501
- Cc1nc(Oc2ccc3c(c2)CCN(C2CCC2)CC3)ccc1C#N: 3.98

---

Assay: Aqueous solubility of the compound
Type: physicochemical
Experimental readout: solubility

- O=C1CCCN1c1ccc(Oc2ccc3c(c2)CCN(C2CCC2)CC3)nc1: > 10000 µg/mL
- CNC(=O)c1ccc(Oc2ccc3c(c2)CCN(C2CCC2)CC3)nc1: > 10000 µg/mL

---

Target: Histamine H3 receptor (Rattus norvegicus, UniProt Q9QYN8)
Assay: Displacement of [3H]-R-alpha-ethylhistamine from histamine H3 receptor in rat cerebral cortical tissue membranes after 45 mins by liquid scintillation spectrometry
pKi: −log10 of the molar value.
Experimental readout: pKi

* Cc1noc(C)c1-c1ccc(Oc2ccc3c(c2)CCN(C2CCC2)CC3)nc1 | 8.60
* O=C1CCCN1c1ccc(Oc2ccc3c(c2)CCN(C2CCC2)CC3)nc1 [GSK239512] | 9.44
* CN1CCN(c2ccc(Oc3ccc4c(c3)CCN(C3CCC3)CC4)nc2)C1=O | 9.00
* CC1CCC(=O)N1c1ccc(Oc2ccc3c(c2)CCN(C2CCC2)CC3)nc1 (stereo not given) | 8.60
* CNC(=O)c1ccc(Oc2ccc3c(c2)CCN(C2CCC2)CC3)nc1 [GSK189254] | 8.58

---

System: Blood
Assay: Drug level in rat blood at 3 mg/kg, po; further: time not given here
Assay type: ADME, organism-based
Set-up: dose 3 mg/kg, route oral
Settings: in vivo, read-out: Drug uptake
We'd kindly ask you to apply these concentration classes: low = under 500 nM, middle = from 500 nM up to 900 nM, high = 900 nM and over

- Cc1nnc(-c2ccc(Oc3ccc4c(c3)CCN(C3CCC3)CC4)nc2)o1: high
- O=C1CCCN1c1ccc(Oc2ccc3c(c2)CCN(C2CCC2)CC3)nc1: low
- CNC(=O)c1cnc(Oc2ccc3c(c2)CCN(C2CCC2)CC3)cn1: high
- CC(=O)Nc1ccc(Oc2ccc3c(c2)CCN(C2CCC2)CC3)nc1: high
- CNC(=O)c1ccc(Oc2ccc3c(c2)CCN(C2CCC2)CC3)cc1: middle
- O=C(c1ccc(Oc2ccc3c(c2)CCN(C2CCC2)CC3)nc1)N1CCCC1: low
- CCN(C)C(=O)c1ccc(Oc2ccc3c(c2)CCN(C2CCC2)CC3)nc1: low
- CNC(=O)c1ccc(Oc2ccc3c(c2)CCN(C2CCC2)CC3)cn1: middle
- CNC(=O)c1ccc(Oc2ccc3c(c2)CCN(C2CCC2)CC3)nn1: middle
- O=C1CCCN1c1ccc(Oc2ccc3c(c2)CCN(C2CCCC2)CC3)nc1: middle
